- target-of-assay: Human immunodeficiency virus type 1 protease (Human immunodeficiency virus 1, UniProt Q72874)
- measurement-notes: Inhibition of HIV protease at pH 6.4, 37 degree C
*1 amine or outer side, *2 acyl side, *3 side chain or, on linkers, in order; H or OH if unused. Where a SMILES comes first, the peptide text is derived from it. [ ]: non-standard residue; d: D form. Phe(ψ(S)CH(OH)CH2N)Pro = O=C([C@@H]1CCCN1C[C@H](O)[C@H](Cc1ccccc1)N[*:1])[*:2]; X1 = CC(C)C[C@H](N[*:1])[C@@H](O)CN1CCC[C@H]1C(=O)[*:2]; Sta = CC(C)C[C@H](N)[C@@H](O)CC(=O)O
reported-property: Ki (µM)

compound: CC[C@@H](C)[C@H](NC(=O)[C@@H]1CCCN1C[C@@H](O)[C@H](Cc1ccccc1)NC(=O)[C@H](CC(N)=O)NC(=O)[C@H](CC(C)C)NC(C)=O)C(=O)N[C@H](C(=O)OC)C(C)C
value-measured: 0.021

compound: CC[C@H](C)[C@H](NC(=O)[C@@H]1CCCN1C[C@H](O)[C@H](CC(C)C)NC(=O)[C@H](CC(N)=O)NC(=O)[C@H](CC(C)C)NC(C)=O)C(=O)N[C@H](C(=O)OC)C(C)C (Ac-LN[X1]IV-OMe)
value-measured: 0.021

compound: CC[C@H](C)[C@H](NC(=O)C[C@H](O)[C@H](CC(C)C)NC(=O)[C@H](CC(N)=O)NC(=O)[C@H](CC(C)C)NC(=O)[C@H](CO)NC(C)=O)C(=O)N[C@H](C(=O)OC)C(C)C (Ac-SLN[Sta]IV-OMe)
value-measured: 1.06

compound: CC[C@H](C)[C@H](NC(=O)[C@@H]1CCCN1C[C@H](O)[C@H](Cc1ccccc1)NC(=O)[C@H](CC(N)=O)NC(=O)[C@H](CC(C)C)NC(=O)[C@H](CO)NC(C)=O)C(=O)N[C@H](C(=O)OC)C(C)C (Ac-SLN[Phe(ψ(S)CH(OH)CH2N)Pro]IV-OMe)
value-measured: 0.00066

compound: COC(=O)[C@@H](NC(=O)[C@@H](NC(=O)CNC[C@H](O)[C@H](Cc1ccccc1)NC(=O)[C@H](C)NC(=O)[C@H](C)N)C(C)C)C(C)C
value-measured: 0.018

compound: CC[C@H](C)[C@H](NC(=O)[C@H](Cc1ccccc1)NC[C@H](O)[C@H](Cc1ccccc1)NC(=O)OC(C)(C)C)C(=O)N[C@@H](Cc1ccccc1)C(=O)OC
value-measured: 0.0006
